Measured values drawn from patent US20210346459A1 for this set.

The entries below come with measured CC50 values attached.
Assay: in vitro
Conditions: African green monkey
Square brackets hold non-standard residues; d marks the D form. Peptide text beside a SMILES is read from it.

compound	CC50
Nc1nc2c(ncn2COCCO)c(=O)[nH]1 [Aciclovir]	> 30 µg/mL
CC(C)C[C@H](NC(=O)[C@H](Cc1ccccc1)NC(=O)CNC(=O)[C@@H](C)NC(=O)[C@@H](N)Cc1ccc(O)cc1)C(=O)N[C@@H](CCCNC(=N)N)C(=O)O [Dalargin] (H-Y[dA]GFLR-OH)	≥ 30 µg/mL

---

Assay: in vitro
Conditions: dog
Square brackets hold non-standard residues; d marks the D form. Peptide text beside a SMILES is read from it.

compound	CC50
CC(C)C[C@H](NC(=O)[C@H](Cc1ccccc1)NC(=O)CNC(=O)[C@@H](C)NC(=O)[C@@H](N)Cc1ccc(O)cc1)C(=O)N[C@@H](CCCNC(=N)N)C(=O)O [Dalargin] (H-Y[dA]GFLR-OH)	≥ 30 µg/mL
